Tested on: Pseudomonas aeruginosa
Assay: Antibacterial activity against wild-type Pseudomonas aeruginosa
Type: functional
Details: Pseudomonas aeruginosa
ASSAY_ENDPOINT: MIC (µM)
Enter your answer as a number in µM; do not include the unit.

Some solved entries appear below for comparison.
With Pseudomonas aeruginosa as the test system, NC[C@H]1OB(O)c2ccccc21 showed MIC of 6.25

Given the compound N=C(N)SCc1ccc(Cl)cc1 and test system Pseudomonas aeruginosa, the measured MIC is 12.5

Noted MIC for CO[C@H]1CN(c2nc(-c3cnc(N4CCN[C@H](C)C4)cn3)c(C(=O)O)s2)CC[C@H]1NC(=O)c1[nH]c(C)c(Cl)c1Cl , tested on Pseudomonas aeruginosa: 25

Moving on to another compound below.
With Pseudomonas aeruginosa as the test system, CC1COc2c(N3CCN(C)CC3)c(F)cc3c(=O)c(C(=O)O)cn1c23 (configuration not stated) [OFLOXACIN] showed MIC of 5.2
